The values you see were collected from patent US9637516B2.

Measurement Description: Single dose oral pharmacokinetic study
Type: in vivo, mice
Study Conditions: mouse, plasma; Mice oral PK @30 mg/kg (Table 4)
Value Kind: Cmax (µg/mL)

INSERT INTO assay_data (compound, value_kind, result_units, assay_result) VALUES
  ('C=C(C)[C@@H]1CC[C@]2(C(=O)N3CCC[C@H]3c3ncc(-c4ccccc4)[nH]3)CC[C@]3(C)[C@H](CC[C@@H]4[C@@]5(C)CC[C@H](OC(=O)[C@@H]6C[C@H](C(=O)O)C6(C)C)C(C)(C)[C@@H]5CC[C@]43C)[C@@H]12', 'Cmax', 'µg/mL', 10.1),
  ('CC1(C)C(C(=O)O)CC1C(=O)O[C@H]1CC[C@]2(C)[C@H]3CC[C@@H]4[C@H]5[C@H](C6(C)CC6)CC[C@]5(C(=O)N5CCC[C@H]5c5ncc(-c6ccccc6)[nH]5)CC[C@@]4(C)[C@]3(C)CC[C@H]2C1(C)C (stereo partly drawn)', 'Cmax', 'µg/mL', 13.9),
  ('C=C(C)[C@@H]1CC[C@]2(C(=O)N3CCCC3c3ncc(-c4ccc(OC)cc4)[nH]3)CC[C@]3(C)[C@H](CC[C@@H]4[C@@]5(C)CC[C@H](OC(=O)[C@H]6C[C@@H](C(=O)O)C6(C)C)C(C)(C)[C@@H]5CC[C@]43C)[C@@H]12 (stereo partly drawn)', 'Cmax', 'µg/mL', 11.4);
